Each entry below carries its recorded pIC50.
target: UniProtKB P10275; assay: AR Antagonist Cell Assay (MMTV-luciferase reporter, DHT-induced); details: MDA-MB453-MMTV clone 54-19 cells, 100 pM DHT, 17 hr
pIC50: −log10 of the molar value.

// solved cases for pIC50 follow
Query :: For the compound CC(O)c1cccc(NS(=O)(=O)c2ccc3c(c2)c(C(F)(F)F)cc(=O)n3C)c1 (centres unmarked) [Example 28] , what pIC50 is on record?
Result :: < 5.00

Query :: Now this one: Cn1c(=O)cc(C(F)(F)F)c2cc(S(=O)(=O)Nc3cccc(OC(F)F)c3)ccc21 [Example 38]
Result :: 5.25

Query :: Now this one: Cc1ccc(CNS(=O)(=O)c2ccc3[nH]c(=O)cc(C(F)(F)F)c3c2)c(F)c1F [Example 145]
Result :: < 5.00

Query :: Now this one: Cn1c(=O)cc(C(F)(F)F)c2cc(S(=O)(=O)NCCC(C)(C)C)ccc21 [Example 49]
Result :: < 5.00

Further cases:
Query :: For the compound Cn1c(=O)cc(C(F)(F)F)c2cc(S(=O)(=O)NCCCCc3ccccc3)ccc21 [Example 57] , what pIC50 is on record?
Result :: < 5.00

Query :: Now this one: O=c1cc(C(F)(F)F)c2cc(S(=O)(=O)NCc3cccc(Cl)c3)ccc2[nH]1 [Example 138]
Result :: < 5.00

Query :: Now this one: Cc1cc(=O)oc2cc(NS(=O)(=O)c3ccc4[nH]c(=O)cc(C(F)(F)F)c4c3)ccc12 [Example 111]
Result :: < 5.00

Query :: Now this one: O=c1cc(C(F)(F)F)c2cc(S(=O)(=O)Nc3ccc(CCO)cc3)ccc2[nH]1 [Example 113]
Result :: < 5.00

Query :: Now this one: Cn1c(=O)cc(C(F)(F)F)c2cc(S(=O)(=O)Nc3cccc4c3CCC4)ccc21 [Example 23]
Result :: < 5.00

Query :: Now this one: CCCCN(CCCC)S(=O)(=O)c1ccc2[nH]c(=O)cc(C(F)(F)F)c2c1 [Example 68]
Result :: 6.39

Query :: Now this one: Cc1ccc(-c2ccccc2)cc1NS(=O)(=O)c1ccc2[nH]c(=O)cc(C(F)(F)F)c2c1 [Example 99]
Result :: < 5.00

---

molecular target: androgen receptor (Homo sapiens); experiment: AR Antagonist Cell Assay (MMTV-luciferase reporter, DHT-induced); conditions: MDA-MB453-MMTV clone 54-19 cells, 100 pM DHT, 17 hr
Sequence (P10275 whole entry Q868H, form open): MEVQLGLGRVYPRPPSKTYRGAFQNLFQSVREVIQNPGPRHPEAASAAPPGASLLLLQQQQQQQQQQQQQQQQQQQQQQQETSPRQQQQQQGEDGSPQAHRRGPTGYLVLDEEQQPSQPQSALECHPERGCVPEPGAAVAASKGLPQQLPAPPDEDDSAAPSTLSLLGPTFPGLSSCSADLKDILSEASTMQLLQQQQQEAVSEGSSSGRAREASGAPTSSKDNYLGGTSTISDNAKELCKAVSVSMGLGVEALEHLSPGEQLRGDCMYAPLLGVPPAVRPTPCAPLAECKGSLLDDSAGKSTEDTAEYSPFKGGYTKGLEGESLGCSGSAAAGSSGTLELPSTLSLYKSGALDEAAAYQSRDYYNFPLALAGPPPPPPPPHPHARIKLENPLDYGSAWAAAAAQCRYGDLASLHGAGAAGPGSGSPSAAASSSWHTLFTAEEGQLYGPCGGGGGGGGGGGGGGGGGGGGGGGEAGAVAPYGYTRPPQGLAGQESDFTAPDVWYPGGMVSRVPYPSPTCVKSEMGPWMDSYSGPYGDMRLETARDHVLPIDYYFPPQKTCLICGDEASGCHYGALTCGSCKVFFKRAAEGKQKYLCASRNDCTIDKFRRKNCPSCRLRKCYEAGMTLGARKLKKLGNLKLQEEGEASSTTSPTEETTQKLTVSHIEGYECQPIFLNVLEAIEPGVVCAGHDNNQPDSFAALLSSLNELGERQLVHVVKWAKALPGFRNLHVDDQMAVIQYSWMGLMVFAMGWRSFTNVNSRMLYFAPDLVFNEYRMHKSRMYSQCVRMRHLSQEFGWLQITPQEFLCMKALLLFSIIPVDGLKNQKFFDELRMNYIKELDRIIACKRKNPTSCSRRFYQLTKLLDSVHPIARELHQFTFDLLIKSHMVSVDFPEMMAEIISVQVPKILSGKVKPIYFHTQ
Each entry below carries its recorded IC50.

// solved cases for IC50 follow
Query :: For the compound CSc1ccccc1CNS(=O)(=O)c1ccc2oc(=O)cc(C(F)(F)F)c2c1 , what IC50 is on record?
Result :: > 10 µM

Query :: Now this one: CCOC(=O)Cc1ccc(NS(=O)(=O)c2ccc3c(c2)c(C(F)(F)F)cc(=O)n3C)cc1
Result :: > 10 µM

Query :: Now this one: Cn1c(=O)cc(C(F)(F)F)c2cc(S(=O)(=O)Nc3cnc4ccccc4c3)ccc21
Result :: > 10 µM

Query :: Now this one: Cc1cccc(C)c1NS(=O)(=O)c1ccc2[nH]c(=O)cc(C(F)(F)F)c2c1
Result :: > 10 µM

Query :: Now this one: CC(O)c1cccc(NS(=O)(=O)c2ccc3[nH]c(=O)cc(C(F)(F)F)c3c2)c1 (centres unmarked)
Result :: > 10 µM

Query :: Now this one: O=c1cc(C(F)(F)F)c2cc(S(=O)(=O)NCCc3c[nH]c4ccccc34)ccc2[nH]1
Result :: 0.26 µM

Further cases:
Query :: For the compound Cn1c(=O)cc(C(F)(F)F)c2cc(S(=O)(=O)Nc3ccc4c(c3)OCO4)ccc21 , what IC50 is on record?
Result :: 4.04 µM

Query :: Now this one: O=c1cc(C(F)(F)F)c2cc(S(=O)(=O)NCc3ccccc3C(F)(F)F)ccc2[nH]1
Result :: 0.75 µM
